molecular target: His-tagged Stx 2B-subunit (Escherichia phage 933W); experiment: biochemical; type: binding, Escherichia coli O157:H7
Sequence (P09386 20-89 limits assumed): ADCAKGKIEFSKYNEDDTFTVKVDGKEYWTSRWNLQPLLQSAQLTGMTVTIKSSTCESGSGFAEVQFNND
Positions of bridges follow the written chain, without caps; N, C: chain ends. Non-standard residues stand in square brackets, D forms with d. Chains are numbered I, II in the order given. No end group written: not given here. ξ: configuration not given here. ξK = NCCCCC(N)C(=O)O; Ahx = NCCCCCC(=O)O
The following substances are shown together with reported Kd values.
Write the value in µM as a bare number.

Recorded Kd, per entry:
Substance | Kd, µM
I: MAPPPRRRRA[Ahx][ξK][ξK] / II: MAPPPRRRRA[Ahx][ξK] / III: MAPPPRRRRA[Ahx] / IV: MAPPPRRRRA[Ahx] (amide I:12-IV:C, I:13-II:C, II:12-III:C) [PPPRRRR] | 3.2
I: MAPPRRNRRA[Ahx][ξK][ξK] / II: MAPPRRNRRA[Ahx][ξK] / III: MAPPRRNRRA[Ahx] / IV: MAPPRRNRRA[Ahx] (amide I:12-IV:C, I:13-II:C, II:12-III:C) [PPRRNRR] | 2.7
I: MAFRRNRRNA[Ahx][ξK][ξK] / II: MAFRRNRRNA[Ahx][ξK] / III: MAFRRNRRNA[Ahx] / IV: MAFRRNRRNA[Ahx] (amide I:12-IV:C, I:13-II:C, II:12-III:C) [FRRNRRN] | 1.7

# context switch: different substance, same Kd
For reference, reported Kd for I: MAKRRNPRRA[Ahx][ξK][ξK] / II: MAKRRNPRRA[Ahx][ξK] / III: MAKRRNPRRA[Ahx] / IV: MAKRRNPRRA[Ahx] (amide I:12-IV:C, I:13-II:C, II:12-III:C) [KRRNPRR] stands at 2.1
